Below, each of the molecules is paired with its reported CC50 value.
- Test system: IGROV1
- assay_comment: NCI in vitro cancer screen, Ovarian Cancer
- Format: cell-based, human
- cond: Homo sapiens, IGROV-1; IGROV1; read-out: LC50 (the source's name)

Previously resolved entries follow.
chem_smiles	CC50
COc1cc(/C=C/c2cc(O)cc(OCC=C(C)C)c2)ccc1O	> 100 µM
CC(C)=CCc1c(O)cc(/C=C/c2ccc(O)cc2)c(CC=C(C)C)c1O	54.1 µM
COc1cc(/C=C/c2cc(O)c(CC=C(C)C)c(O)c2)ccc1O	> 100 µM

# input for lookup
Dear colleague, I am looking for the recorded CC50 of the following molecule: CC(C)=CCc1c(O)cc(/C=C/c2ccc(O)c(O)c2)c(CC=C(C)C)c1O 36.7 µM

----------
- Tested on: NCI-H522
- assay_comment: NCI in vitro cancer screen, Non-Small Cell Lung Cancer
- Assay type: cell-based, human
- cond: Homo sapiens, NCI-H522
measured_attribute: GI50 (nM)
# value in nM; strip the unit string

// lookup GI50 | system=NCI-H522 | key= CC(C)=CCc1c(O)cc(/C=C/c2ccc(O)c(O)c2)c(CC=C(C)C)c1O 1610

Lookup COc1cc(O)cc(/C=C/c2ccc(O)c(O)c2)c1CC=C(C)C 150

Subsequent entry: CC(C)=CCOc1cc(O)cc(/C=C/c2ccc(O)c(O)c2)c1 1070

Record: CC(C)=CCc1c(O)cc(/C=C/c2ccc(O)cc2)c(CC=C(C)C)c1O 2180

What about COc1cc(/C=C/c2cc(O)cc(OCC=C(C)C)c2)ccc1O ? 1140

Next compound up: COc1cc(/C=C/c2cc(O)c(CC=C(C)C)c(O)c2)ccc1O 2130

For COc1cc(/C=C/c2cc(O)cc(OC)c2CC=C(C)C)ccc1O then? 20

----------
// CCRF-CEM log10 of GI50 records
Could you please treat all values as log10 of GI50 in µM?

// lookup log10 of GI50 | system=CCRF-CEM | key= COc1cc(/C=C/c2cc(O)cc(OCC=C(C)C)c2)ccc1O 0.70

Now try COc1cc(/C=C/c2cc(O)cc(OC)c2CC=C(C)C)ccc1O . -0.46

----------
- System: HOP-62
- assay_comment: NCI in vitro cancer screen, Non-Small Cell Lung Cancer
- Type: cell-based, human
- cond: Homo sapiens, HOP-62; read-out: LC50 (the source's name)
Recorded CC50 values for a group of molecules are listed next.

These solved cases illustrate the format of a correct answer.
chem_smiles	measured_attribute	obs_value
COc1cc(/C=C/c2cc(O)cc(OC)c2CC=C(C)C)ccc1O	CC50	42.2 µM
COc1cc(/C=C/c2cc(O)c(CC=C(C)C)c(O)c2)ccc1O	CC50	53.7 µM
CC(C)=CCOc1cc(O)cc(/C=C/c2ccc(O)c(O)c2)c1	CC50	83.4 µM
CC(C)=CCc1c(O)cc(/C=C/c2ccc(O)c(O)c2)c(CC=C(C)C)c1O	CC50	51.6 µM

Value wanted: CC50 (HOP-62) of entry COc1cc(O)cc(/C=C/c2ccc(O)c(O)c2)c1CC=C(C)C > 100 µM

Next entry: CC(C)=CCc1c(O)cc(/C=C/c2ccc(O)cc2)c(CC=C(C)C)c1O 44 µM

COc1cc(/C=C/c2cc(O)cc(OCC=C(C)C)c2)ccc1O ? 43.4 µM

----------
This section presents compounds with their documented CC50 values.
- Tested on: HL-60 (TB)
- assay_comment: NCI in vitro cancer screen, Leukemia
- Format: cell-based, human
- cond: Homo sapiens; HL-60 (TB); read-out: LC50 (the source's name)
The reply should contain only the number, in µM.

compound	unit_name	CC50
CC(C)=CCc1c(O)cc(/C=C/c2ccc(O)cc2)c(CC=C(C)C)c1O [USYDS6]	µM	15.4
COc1cc(O)cc(/C=C/c2ccc(O)c(O)c2)c1CC=C(C)C [USYDS9]	µM	0.95
COc1cc(/C=C/c2cc(O)cc(OC)c2CC=C(C)C)ccc1O [USYDS1]	µM	68.9

Kindly consider the entry below.
Given the compound CC(C)=CCc1c(O)cc(/C=C/c2ccc(O)c(O)c2)c(CC=C(C)C)c1O [USYDS7] , what is its reported CC50? 13.8

----------
- System: HCT-15
- assay_comment: NCI in vitro cancer screen, Colon Cancer
- Assay type: cell-based, human
- cond: HCT-15
The entries below come with measured TGI values attached.
All answers are understood in µM, so give the number only.

Worked cases, TGI given:
compound	system	unit_name	TGI
CC(C)=CCc1c(O)cc(/C=C/c2ccc(O)cc2)c(CC=C(C)C)c1O [USYDS6]	HCT-15	µM	6.26
CC(C)=CCc1c(O)cc(/C=C/c2ccc(O)c(O)c2)c(CC=C(C)C)c1O [USYDS7]	HCT-15	µM	3.78
CC(C)=CCOc1cc(O)cc(/C=C/c2ccc(O)c(O)c2)c1 [USYDS4]	HCT-15	µM	34.9
COc1cc(/C=C/c2cc(O)cc(OCC=C(C)C)c2)ccc1O [USYDS2]	HCT-15	µM	17.8
COc1cc(/C=C/c2cc(O)c(CC=C(C)C)c(O)c2)ccc1O [USYDS13]	HCT-15	µM	20.5

Please look at the following compound next.
Which TGI is reported with HCT-15 for this entry: COc1cc(/C=C/c2cc(O)cc(OC)c2CC=C(C)C)ccc1O [USYDS1] ? 16.1

----------
- System: CAKI-1
- assay_comment: NCI in vitro cancer screen, Renal Cancer
- Type: cell-based, human
- cond: Homo sapiens, CAKI-1
API: label(entry) gives Satisfied if the entry's GI50 is strictly smaller than 6 µM; on equality or larger values it gives Not satisfied.

Look over these answered cases.
chem_smiles	answer_label
CC(C)=CCc1c(O)cc(/C=C/c2ccc(O)c(O)c2)c(CC=C(C)C)c1O	Satisfied
COc1cc(O)cc(/C=C/c2ccc(O)c(O)c2)c1CC=C(C)C	Not satisfied
CC(C)=CCc1c(O)cc(/C=C/c2ccc(O)cc2)c(CC=C(C)C)c1O	Not satisfied
CC(C)=CCOc1cc(O)cc(/C=C/c2ccc(O)c(O)c2)c1	Satisfied

Item COc1cc(/C=C/c2cc(O)cc(OC)c2CC=C(C)C)ccc1O : GI50 beneath 6 µM, strictly? Satisfied

----------
- System: 786-0
- assay_comment: NCI in vitro cancer screen, Renal Cancer
- Assay type: cell-based, human
- cond: 786-0
Rule: TGI of 20 µM or more gives yes; anything lower gives no.

Solved cases (5 shown):
chem_smiles	answer_label
COc1cc(/C=C/c2cc(O)cc(OCC=C(C)C)c2)ccc1O	no
COc1cc(/C=C/c2cc(O)c(CC=C(C)C)c(O)c2)ccc1O	yes
CC(C)=CCc1c(O)cc(/C=C/c2ccc(O)c(O)c2)c(CC=C(C)C)c1O	no
COc1cc(O)cc(/C=C/c2ccc(O)c(O)c2)c1CC=C(C)C	no
CC(C)=CCc1c(O)cc(/C=C/c2ccc(O)cc2)c(CC=C(C)C)c1O	no

Say whether COc1cc(/C=C/c2cc(O)cc(OC)c2CC=C(C)C)ccc1O shows TGI of 20 µM or more. no

----------
- System: SW-620
- assay_comment: NCI in vitro cancer screen, Colon Cancer
- Format: cell-based, human
- cond: Homo sapiens, SW-620
log10(GI50) reference
Values reflect log10 of reported GI50 (nM).

Consider the worked cases shown below.
chem_smiles	log10(GI50)
COc1cc(/C=C/c2cc(O)cc(OC)c2CC=C(C)C)ccc1O	1.60
CC(C)=CCOc1cc(O)cc(/C=C/c2ccc(O)c(O)c2)c1	3.47
CC(C)=CCc1c(O)cc(/C=C/c2ccc(O)cc2)c(CC=C(C)C)c1O	3.26
COc1cc(/C=C/c2cc(O)cc(OCC=C(C)C)c2)ccc1O	2.72

Dear colleague, I am looking for the recorded log10(GI50) of the following compound: COc1cc(O)cc(/C=C/c2ccc(O)c(O)c2)c1CC=C(C)C 2.49

Item: COc1cc(/C=C/c2cc(O)c(CC=C(C)C)c(O)c2)ccc1O 3.60

Entry to check: CC(C)=CCc1c(O)cc(/C=C/c2ccc(O)c(O)c2)c(CC=C(C)C)c1O 3.20

----------
Listed here: items and their measured GI50.
- Tested on: K-562
- assay_comment: NCI in vitro cancer screen, Leukemia
- Format: cell-based, human
- cond: Homo sapiens, K562; K-562
// units = µM; emit number, no label

Using the record for CC(C)=CCc1c(O)cc(/C=C/c2ccc(O)cc2)c(CC=C(C)C)c1O , report its GI50. 1.46

----------
- System: SF-268
- assay_comment: NCI in vitro cancer screen, CNS Cancer
- Format: cell-based, human
- cond: Homo sapiens, SF-268; read-out: LC50 (the source's name)
measured_attribute: CC50

chem_smiles	CC50
COc1cc(O)cc(/C=C/c2ccc(O)c(O)c2)c1CC=C(C)C	> 100 µM

Give its CC50 value. Item: CC(C)=CCc1c(O)cc(/C=C/c2ccc(O)c(O)c2)c(CC=C(C)C)c1O 22.7 µM

How about this compound: COc1cc(/C=C/c2cc(O)c(CC=C(C)C)c(O)c2)ccc1O > 100 µM

What about CC(C)=CCOc1cc(O)cc(/C=C/c2ccc(O)c(O)c2)c1 ? > 100 µM

Param item: COc1cc(/C=C/c2cc(O)cc(OC)c2CC=C(C)C)ccc1O 50.2 µM

Another compound to check: COc1cc(/C=C/c2cc(O)cc(OCC=C(C)C)c2)ccc1O 51.6 µM

Same question for CC(C)=CCc1c(O)cc(/C=C/c2ccc(O)cc2)c(CC=C(C)C)c1O please. 44.3 µM
